- Experimental target: T1, γδ T cell receptor on human γδ T cells (human)
- T1 construct: whole, on cells; Target is the γδ TCR on a mixed population of human γδ T cells; also called AG000003021 (γδ T cells)
- Experiment description: flow cytometry DRC binding 37 C, human γδ T cells
Quantity: Max. Activity (fold over background)
Give the number; fold over background is assumed, so skip it.

Please review the following examples before continuing.
- Binder: "VG9B41 (antibody, human IgG1, kappa, V domains shown, IgG1, kappa; specificity column: Vd2) VH: QVQLQESGPQLVRPGASVKISCKASGYSFTTYWMHWVKQRPGQGLEWIGLIDPSDSETRLNQKFKDKATLTVDKSSSTAYMRLSSPTSEDSAVYYCASNRWLLGWGQGTMVTVSS VL: EIVLTQTPLSSPVTLGQPASISCRSSQSLVHSDGNTYLSWLHQRPGQPPRLLIYKISNRFSGVPDRFSGSGAGTDFTLKISRVETEDVGVYYCVQTREFPLTFGGGTKVEIKR"
  Reading: 137
- Binder: "VG9B96 (antibody, human IgG1, kappa, V domains shown, IgG1, kappa; specificity column: g/d constant) VH: EVQLVQSGAEVKKPGSSVKVSCKASGGTFSNYAISWVRLAPGQGLEWMGGIIPIFSAGTYAQRFQGRVTITADKSTSTAYMELNSLRSEDTAVYYCSSNSGTYYDYYYGMDVWGQGTMVTVSS VL: DIVMTQSPLSSHVTLGQPASISCRSSQSLVHSDGNTYLSWLQQRPGQPPRLLIYKIFNRLSGVPDRFSGSGAGTDFTLKISRVEAEDVGVYYCMQAKQFPLTFGGGTKVEIKR"
  Reading: 1020

Then this binder:
Problem: Consider the binder VG9B47 (antibody, human IgG1, kappa, V domains shown, IgG1, kappa; specificity column: g/d constant) VH: QVQLVQSGAEVKKPGSSVKVSCKASGGSFSNYAISWMRQAPGQGLEWMGGIIPFFGTPDYAQKFQGRVTITADKSTSTAYMELSSLRSEDTAVYYCSTGGGYGDYDYYYGINVWGQGTMVTVSS VL: DIVMTQSPLSSPVDLGQPASISCRSSQSLVHSDGNTYLSWLQQRPGQPPRLLIYKISNRFSGVPDRFSGSGAGTDFTLKISRVEAEDVGVYYCMQAKEFPLTLGGGTKVDIKR and give its recorded Max. Activity.
Solution: 1560

// provenance: patent US20220125947A1
